Test system: Mannhemia hemolytica KB345
Experiment: Paper disc assay, M. hemolytica KB345 (Tilmicosin-sensitivity strain)
Assay type: cell-based
Details: Table 4; 30 mg/6 mm disk
value type: Inhibition zone (mm)

Observe how each entry below is paired with its result.
compound	tested system	Inhibition zone (mm)
CCC1OC(=O)CC(O)C(C)C(OC2OC(C)C(O)C(N(C)C)C2O)C(CC=O)CC(C)C(=O)C=CC(C)=CC1CN=[N+]=[N-] (stereo not shown)	Mannhemia hemolytica KB345	18.0 mm
CC[C@H]1OC(=O)C[C@@H](O)[C@H](C)[C@@H](O[C@@H]2O[C@H](C)[C@@H](O)[C@H](N(C)C)[C@H]2O)[C@@H](CCn2cc(-c3ccccc3)nn2)C[C@@H](C)C(=O)/C=C/C(C)=C/[C@@H]1CO	Mannhemia hemolytica KB345	25.0 mm
CC[C@H]1OC(=O)C[C@@H](O)[C@H](C)[C@@H](O[C@@H]2O[C@H](C)[C@@H](O)[C@H](N(C)C)[C@H]2O)[C@@H](CCn2cc(-c3ccccc3)nn2)C[C@@H](C)C(=O)/C=C/C(C)=C/[C@@H]1CN=[N+]=[N-]	Mannhemia hemolytica KB345	21.0 mm

# input for lookup
If you can, please state the reported Inhibition zone (mm) value of CC[C@H]1OC(=O)C[C@@H](O)[C@H](C)[C@@H](O[C@@H]2O[C@H](C)[C@@H](O)[C@H](N(C)C)[C@H]2O)[C@@H](CC=O)C[C@@H](C)C(=O)/C=C/C(C)=C/[C@@H]1CO [YT106, 5-O-mycaminosyltylonolide] .
12.5 mm
